# System: TK-10
# TEST_NAME: NCI tumour cell line growth inhibition, 48 h
Active and inactive are the calls of the source. Rule as the data show it: active = GI50 up to about 1.1 µM and inactive = higher.
MEASURE_NAME: GI50

{"columns": ["COMPOUND", "REPORTED_RESULT"],
 "data": [
  ["COc1cccc(C2C(C(=O)O)=C(CO)Oc3cc4c(cc32)OCO4)c1OC (stereo not given)", "> 100 µM (inactive)"],
  ["Cc1ccc2oc3c(ccc(=O)n3C)c(=O)c2c1", "> 100 µM (inactive)"],
  ["COC(=O)CCCC(=O)O", "> 100 µM (inactive)"],
  ["CCOC(=O)CSc1[nH]c(NC(=S)Nc2ccccc2)c(C(N)=O)c1C(N)=O", "> 10 µM (inactive)"],
  ["Cc1ccc2nc3ccccc3c(C3C4C(=O)N(c5ccc(Br)cc5Cl)C(=O)C4ON3C(C(N)=O)c3ccccc3)c2c1 (stereo not given)", "> 25 µM (inactive)"],
  ["O=[N+]([O-])c1ccccc1C1SCc2nc3ccccc3n21 (stereo not given)", "79.1 µM (inactive)"],
  ["c1cc(C2=NCCO2)c2ccsc2c1", "> 100 µM (inactive)"],
  ["COc1ccc(C(=O)NCCC2=CCCCC2)cc1", "> 100 µM (inactive)"],
  ["N#CCCn1c(S)nnc1CCC(=O)Nc1ccc(Cl)cc1Cl", "> 100 µM (inactive)"],
  ["CC1=C[C@H](O)[C@@]2(C)[C@@H]([C@@H]1C)[C@H]1CC[C@@H]3[C@@]4(C)CC[C@H](O)C(C)(C)[C@@H]4CC[C@@]3(C)[C@]1(C)C[C@@H]2O", "22.2 µM (inactive)"]
]}

###

# System: 786-0
# TEST_NAME: NCI tumour cell line growth inhibition, 48 h
The source made the active and inactive calls. Cut-off read from the data, not from the text of the source: active = GI50 up to about 1.1 µM and inactive = higher.
Classes used: active, inactive

{"columns": ["COMPOUND", "TARGET_SYSTEM", "CLASS_LABEL"],
 "data": [
  ["COc1ccc(OC)c(NC(=O)CCC/C(CC(=O)c2ccc(O)c(OC)c2)=N\\NC(=O)C[N+](C)(C)C)c1", "786-0", "inactive"],
  ["OC(CN1CCCCC1)c1ccc(/C=C/c2ccc(Cl)cc2)cc1 (stereo not drawn)", "786-0", "inactive"],
  ["CCOC(=O)C1=C(C)N(Cc2ccccc2)C2(O)C(OC)CC(=O)C3C(=O)N(c4ccccc4)C(=O)C132 (stereo not drawn)", "786-0", "inactive"],
  ["COc1ccc2[nH]c3cc4c(=O)c5cc(OC)ccc5[nH]c4cc3c(=O)c2c1", "786-0", "inactive"],
  ["O=C1C=Cc2c1csc2Br", "786-0", "inactive"],
  ["OCC(O)CNc1ccnc2cc(Cl)ccc12 (stereo not drawn)", "786-0", "inactive"],
  ["O=C(N/N=C/c1ccccc1O)c1ccccc1Nc1ccccc1C(=O)N/N=C/c1ccccc1O", "786-0", "active"],
  ["COc1ccc(C[C@@H](C(=O)O[C@H](C)[C@H](NC(=O)[C@@H](CC(C)C)N(C)C(=O)C2CCCN2C(=O)[C@H](C)O)C(=O)N2CCCCNC(=O)[C@@H](C)C(=O)[C@H](C(C)C)OC(=O)C[C@H](O)[C@H]2CC(C)C)N(C)C(C)=O)cc1 (stereo partly drawn)", "786-0", "inactive"]
]}

###

# Test system: SK-MEL-2
# TEST_NAME: NCI tumour cell line growth inhibition, 48 h
Activity calls are given as the source filed them. Rule as the data show it: active = GI50 up to about 1.1 µM and inactive = higher.
Labels: TRUE for active, FALSE for inactive

{"columns": ["MOLECULE", "CLASS_LABEL"],
 "data": [
  ["CC1=C(C)[C@@]2(C)O[C@@]2(C)O[C@@]2(C)O[C@@]12C", "FALSE"],
  ["Cc1cc(O)c(C=O)c2c1C(=O)Oc1c(CO)c(O)c3c(c1O2)C(O)OC3=O (stereo not given)", "FALSE"],
  ["COC(=O)CCCC(=O)O", "FALSE"],
  ["C[C@@H]1CC[C@@H](C)[C@](C)(CCc2ccoc2)C/C=C\\C=C/1C(=O)O", "FALSE"],
  ["CC(=O)O[C@H]1C(=O)[C@@]2(C)C([C@H](OC(=O)c3ccccc3)[C@]3(O)C[C@H](OC(=O)[C@H](O)[C@@H](NC(=O)c4ccc(Cl)cc4)c4ccccc4)C(C)=C1C3(C)C)C1(OC(C)=O)CO[C@@H]1C[C@@H]2O (stereo not given in full)", "TRUE"],
  ["COC1(OC)CCCc2c1no[n+]2[O-]", "FALSE"],
  ["CC(=O)OC(C)(C)/C=C/C(=O)[C@](C)(O)[C@H]1[C@H](O)C[C@@]2(C)[C@@H]3CC=C4[C@@H](C[C@H](O)C(=O)C4(C)C)[C@]3(CO)C(=O)C[C@]12C", "TRUE"],
  ["O=[N+]([O-])c1ccc(C2=NN(c3ccccc3)C[N+](c3ccc(Br)cc3)=N2)cc1", "FALSE"],
  ["Oc1ccc(NCn2c(=S)sc3ccccc32)cc1", "FALSE"],
  ["COC(=O)c1ccc(C)cc1CC1Cc2ccc(C)cc2C1=O (stereo not given)", "FALSE"],
  ["Cc1ccc2nc3ccccc3c(C3C4C(=O)N(c5ccc(Br)cc5Cl)C(=O)C4ON3C(C(N)=O)c3ccccc3)c2c1 (stereo not given)", "FALSE"],
  ["COI1NC(=O)c2ccccc21", "FALSE"],
  ["CC(c1ccccc1)n1cncc1C(=O)NN1CCN(C)CC1 (stereo not given)", "FALSE"],
  ["O=C(c1ccccc1)C(C(=O)c1ccccc1)C1(O)C(=O)c2ccccc2C1=O", "FALSE"],
  ["COc1cccc(Nc2nc(-c3cccs3)nc3cc(OC)c(OC)cc23)c1", "FALSE"],
  ["[O-][S+]1CSCS1 (stereo not given)", "FALSE"],
  ["O=C(O/N=C1/CCC/C1=C\\c1ccccc1)c1ccc(Cl)c(Cl)c1", "FALSE"],
  ["CC(=O)c1c2c(c3ccccc3c1O)O[C@@H]1OCC[C@H]21", "FALSE"],
  ["C=C1C2CCC3C4(C)CCCC(C)(C(=O)O)C4CCC3(C2)C1OC(=O)/C(C)=C/C (stereo not given)", "FALSE"],
  ["CCN1C(Cl)=NS(=O)(=O)c2ccccc21", "FALSE"]
]}

###

# System: MDA-N
# TEST_NAME: NCI tumour cell line growth inhibition, 48 h
Active and inactive are the calls of the source. No stated cut-off is given here; in the data, active = GI50 up to about 1.1 µM and inactive = higher.
Labels: 1.0 for active, 0.0 for inactive

{"columns": ["COMPOUND", "TARGET_SYSTEM", "CLASS_LABEL"],
 "data": [
  ["CCOC(=O)c1c(SC(=O)c2ccc(OC)cc2)n(-c2ccccc2)c(=S)n(-c2ccccc2)c1=O", "MDA-N", 0.0],
  ["CCOC(=O)c1cc(I)c(-c2cc(C)no2)n1C", "MDA-N", 0.0],
  ["O=c1cc(NNc2ccc(F)cc2)[nH]c(=O)[nH]1", "MDA-N", 0.0],
  ["O=c1oc2ccc(Cl)cc2cc1-c1cn2ccsc2n1", "MDA-N", 0.0],
  ["CN[C@@H](Cc1cccc2ccccc12)C(=O)N[C@@H](CC(C)C)B(O)O", "MDA-N", 1.0],
  ["Nc1nc(O)c2nc3c(nc2n1)C(=O)N(c1ccc(C(=O)O)cc1)C3", "MDA-N", 0.0],
  ["CC1CCC2N(C1)CC1C3(O)CC45OC6(O)C(O)CCC4(C)C6CCC5C3(O)CC(O)C1(O)C2(C)O (stereo not given)", "MDA-N", 0.0],
  ["O=c1[nH]c2ccccc2c2nc3ccccc3n12", "MDA-N", 0.0],
  ["Cc1[nH]n(-c2ncc(C#N)c(=O)[nH]2)c(=O)c1CCO", "MDA-N", 0.0],
  ["COc1ccc(/C=C/c2nsc(/C=C/c3ccc(OC)cc3)n2)cc1", "MDA-N", 0.0],
  ["CN(C)CCNC(=O)c1cccc2ccc(-c3ccc(O)cc3)nc12", "MDA-N", 0.0],
  ["O=C(N/N=C/c1ccccc1O)c1ccccc1Nc1ccccc1C(=O)N/N=C/c1ccccc1O", "MDA-N", 0.0],
  ["O=c1[nH]nc(-c2ccccc2)n1-n1cnnc1", "MDA-N", 0.0],
  ["O=C1N/C(=N/N=C/C(O)C(O)C(O)CO)N/C1=C\\c1c[nH]c2ccccc12 (stereo not given)", "MDA-N", 0.0],
  ["O=C(Nc1ccccc1)c1cc2ccccc2c(/N=N\\c2cccc([N+](=O)[O-])c2)c1O", "MDA-N", 0.0],
  ["CO[C@H]1C[C@@H]2CC[C@@H](C)[C@@](O)(O2)C(=O)C(=O)N2CCCC[C@H]2C(=O)O[C@H]([C@H](C)C[C@@H]2CC[C@@H](OC(=O)C(C)(CO)CO)[C@H](OC)C2)CC(=O)[C@H](C)/C=C(\\C)[C@@H](O)[C@@H](OC)C(=O)[C@H](C)C[C@H](C)/C=C/C=C/C=C/1C [TEMSIROLIMUS]", "MDA-N", 0.0],
  ["CCCCCC(C/C=N/N(C)C)C(O)(C(F)(F)F)C(F)(F)F (stereo not given)", "MDA-N", 0.0],
  ["CC1(O)CC23CC1CCC2(C)C12CCCC(C)(C(=O)O1)C2CC3O (stereo not given)", "MDA-N", 0.0],
  ["CSc1ccn(C2CC(F)C(CO)O2)c(=O)n1 (stereo not given)", "MDA-N", 0.0],
  ["Cc1ccc(/N=N/NCCCCN)cc1", "MDA-N", 0.0]
]}
